B1: CLINT1 (parent)
chain: VVTSAREHIYDLRSLENYHFVDEH

variants of: B1; assay: protein stability index of a GFP-peptide fusion (GPS, HEK-293T) (PSI 1-6); higher = more stable; conditions: c terminus: a fixed tail appended;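 note: lentivirally expressed fusions sorted by FACS into six bins by GFP to DsRed ratio, PSI derived from sequencing read proportions per bin multiplied by bin number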
Returns one of Satisfied or Not satisfied; Satisfied when protein stability index is >= 3.

Known results for variants:
{"variant-label": "I9C", "label-class": "Not satisfied"}
{"variant-label": "V1L", "label-class": "Not satisfied"}

# input Could you verify whether the entry "D22M" shows protein stability index of no less than 3?
# output Not satisfied

# input And the next one, "L15Q" ?
# output Satisfied

# input What about "H19Q" ?
# output Satisfied

# input And "N17Q" ?
# output Not satisfied

# input Same question for "V1C" please.
# output Not satisfied

# input Next entry: "S4T"
# output Satisfied

# input Entry "H24Q" please
# output Satisfied
